Catalogue of viability, T/C readings, one per entry.
System: KRAS-mutant PDC complex spheroid viability;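 note: viability read after seven days of compound exposure; 100% = DMSO vehicle-treated spheroids so lower means less viable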
Procedure summary: Anticancer human tumor 186277-243-T-J2-PDC patient-derived colon adenocarcinoma cell line growth inhibition [KRAS2]
Experimental setup: second compound 1 µM; first compound 0.00316 µM; active compounds read low

CC(=O)Nc1cccc(-n2c(=O)n(C3CC3)c(=O)c3c(Nc4ccc(I)cc4F)n(C)c(=O)c(C)c32)c1 + CNCc1ccccc1-c1csc(C(C)Nc2nc(C)nc3cc(OC)c(OC)cc23)c1    1.83%
CCN1CCN(Cc2ccc(Nc3ncc(F)c(-c4cc(F)c5nc(C)n(C(C)C)c5c4)n3)nc2)CC1 + COc1cc2nc(C)nc(NC(C)c3cc(N)cc(C(F)(F)F)c3)c2cc1OC1CCOC1    96%

In: Would you mind telling me what viability, T/C value was observed for CCN1CCN(Cc2ccc(Nc3ncc(F)c(-c4cc(F)c5nc(C)n(C(C)C)c5c4)n3)nc2)CC1 + C=CC(=O)N1CCN(c2nc(=O)n(-c3c(C)ccnc3C(C)C)c3nc(-c4c(O)cccc4F)c(F)cc23)C(C)C1 ?
Out: 109%

# credit: PubChem BioAssay AID1963875
